Test system: Fusarium oxysporum
EXPERIMENTAL PROTOCOL: Antifungal activity against Fusarium oxysporum assessed as inhibition of mycelia growth at 800 ppm after 1 week by filter paper method relative to control
Assay type: functional
CONDITION DETAILS: 168 h, read-out: GI
MEASURED QUANTITY: inhibition of growth at 800 ppm
Please give the number followed by its unit.

[
  {
    "SMILES TEXT": "C[C@H]1[C@@H](OCC#Cc2ccccc2F)O[C@@H]2O[C@@]3(C)CC[C@H]4[C@H](C)CC[C@@H]1[C@@]24OO3",
    "RESULT": "56.8%"
  },
  {
    "SMILES TEXT": "C[C@H]1[C@@H](OCCC#Cc2cccc(-c3ccc(F)cc3)c2)O[C@@H]2O[C@@]3(C)CC[C@H]4[C@H](C)CC[C@@H]1[C@@]24OO3",
    "RESULT": "68%"
  },
  {
    "SMILES TEXT": "C[C@H]1[C@@H](OCCC#Cc2ccc(-c3ccc(F)cc3)s2)O[C@@H]2O[C@@]3(C)CC[C@H]4[C@H](C)CC[C@@H]1[C@@]24OO3",
    "RESULT": "69.9%"
  },
  {
    "SMILES TEXT": "C[C@H]1[C@@H](OCC#Cc2ccc(F)cc2)O[C@@H]2O[C@@]3(C)CC[C@H]4[C@H](C)CC[C@@H]1[C@@]24OO3",
    "RESULT": "57.6%"
  },
  {
    "SMILES TEXT": "C[C@H]1[C@@H](OCCC#Cc2ccc(F)nc2)O[C@@H]2O[C@@]3(C)CC[C@H]4[C@H](C)CC[C@@H]1[C@@]24OO3",
    "RESULT": "66.4%"
  }
]

Okay, now this compound:
### Prompt Identify measured inhibition of growth at 800 ppm associated with C#CCO[C@H]1O[C@@H]2O[C@@]3(C)CC[C@H]4[C@H](C)CC[C@@H]([C@H]1C)[C@@]24OO3
### Response 70.2%
